target-under-test: Carnitine O-palmitoyltransferase 1, muscle isoform (Homo sapiens, UniProt Q92523)
Sequence (Q92523 whole entry, canonical isoform): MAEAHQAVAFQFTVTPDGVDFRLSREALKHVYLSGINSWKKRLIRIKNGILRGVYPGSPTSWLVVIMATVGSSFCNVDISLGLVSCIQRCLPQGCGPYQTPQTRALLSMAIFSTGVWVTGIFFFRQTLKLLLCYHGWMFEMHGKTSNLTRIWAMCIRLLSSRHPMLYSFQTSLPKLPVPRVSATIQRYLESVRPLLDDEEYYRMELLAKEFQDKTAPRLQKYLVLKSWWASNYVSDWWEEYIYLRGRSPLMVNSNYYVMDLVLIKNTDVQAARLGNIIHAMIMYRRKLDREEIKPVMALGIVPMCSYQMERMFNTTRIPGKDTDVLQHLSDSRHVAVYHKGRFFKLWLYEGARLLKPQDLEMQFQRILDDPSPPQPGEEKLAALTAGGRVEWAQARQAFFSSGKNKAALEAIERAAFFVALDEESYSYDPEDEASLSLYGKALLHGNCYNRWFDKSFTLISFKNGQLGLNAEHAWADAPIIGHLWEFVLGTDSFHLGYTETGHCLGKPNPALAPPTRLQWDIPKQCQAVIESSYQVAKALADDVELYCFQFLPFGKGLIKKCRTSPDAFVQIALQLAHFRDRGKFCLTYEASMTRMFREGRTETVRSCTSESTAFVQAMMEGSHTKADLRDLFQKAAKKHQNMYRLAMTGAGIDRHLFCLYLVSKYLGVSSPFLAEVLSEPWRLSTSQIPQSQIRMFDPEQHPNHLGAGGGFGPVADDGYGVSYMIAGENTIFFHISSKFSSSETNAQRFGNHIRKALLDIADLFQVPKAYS
protocol-details: SUPPLEMENTARY: Inhibition of Carnitine palmitoyltransferase 1, muscle isoform
pIC50: −log10 of the molar value.
Assignment: determine reported pIC50 for the given compounds.

Could you tell me pIC50 for each of these compounds? They are listed below.
1. COc1ccc(Cl)cc1S(=O)(=O)c1cn(CC(N)=O)c2ccc(C(=O)Nc3ccccc3)cc12
2. COc1ccc(Cl)cc1S(=O)(=O)N1CC(C)c2ccc(C(=O)Nc3ccc(C(=O)O)c(Cl)c3)cc21 (centres undefined)
3. O=C([C@H]1CCCCN1C(=O)COc1ccccc1)N1CCc2ccccc2C1
4. O=C(O)c1ccc(-c2csc([C@H]3CCCCN3C(=O)COc3ccccc3)n2)cc1
5. NC(=O)COc1cccc(-c2noc([C@H]3CCCCN3C(=O)COc3ccccc3)n2)c1
6. COc1ccc(Cl)cc1S(=O)(=O)N1CCOc2c(C)cc(C(=O)Nc3ccc(CC(=O)O)cc3)cc21
7. Cn1cc(Sc2cccc(Cl)c2)c2cc(C(=O)Nc3ccc(C(=O)O)cc3)ccc21
8. COc1ccc(Cl)cc1S(=O)(=O)N1CCOc2c(Cl)cc(C(=O)Nc3ccn(CC(=O)O)n3)cc21

Result:
["< 4.00", 5.88, "< 4.00", 4.54, "< 4.00", 5.44, 5.95, 5.25]
